SYSTEM: T1, human ferroportin (SLC40A1) fused in frame with GFP, stably expressed in HEK293 cells (human, UniProt Q9NP59 1-571)
T1 sequence (looked up): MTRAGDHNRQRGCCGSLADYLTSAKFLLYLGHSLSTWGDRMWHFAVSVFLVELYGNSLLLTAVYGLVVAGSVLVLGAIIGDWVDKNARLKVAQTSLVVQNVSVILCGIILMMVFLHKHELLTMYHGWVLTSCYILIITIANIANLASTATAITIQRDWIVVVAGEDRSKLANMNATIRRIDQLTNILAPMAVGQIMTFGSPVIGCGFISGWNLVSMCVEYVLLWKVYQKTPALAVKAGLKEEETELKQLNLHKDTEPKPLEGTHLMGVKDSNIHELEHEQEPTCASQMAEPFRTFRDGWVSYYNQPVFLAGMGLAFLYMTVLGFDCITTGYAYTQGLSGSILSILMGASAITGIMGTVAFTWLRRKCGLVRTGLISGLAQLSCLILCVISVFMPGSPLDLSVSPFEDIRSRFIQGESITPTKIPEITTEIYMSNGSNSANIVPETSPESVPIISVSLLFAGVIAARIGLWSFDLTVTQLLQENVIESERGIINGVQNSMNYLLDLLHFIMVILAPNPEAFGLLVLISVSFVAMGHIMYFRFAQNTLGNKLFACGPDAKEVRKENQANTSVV
PROTOCOL_DESCRIPTION: cell-based or functional assay
Starred links: 1 amine or outer side, 2 acyl side, 3 side chain; linkers in the order of their positions; H or OH if unused. Non-standard residues stand in square brackets, D forms with d. Groups on a side chain read outwards from the residue. No end group written: not given here. *: point of attachment. N_Butyl_Phe = CCCCN([C@@H](Cc1ccccc1)C(=O)[*:2])[*:1]; Dip = N[C@H](C(=O)O)C(c1ccccc1)c1ccccc1; γGlu = O=C(O)[C@H](CCC(=O)[*:2])N[*:1]; Palmitoyl = CCCCCCCCCCCCCCCC(=O)*; Myristoyl = CCCCCCCCCCCCCC(=O)*; β3hF = N[C@H](CC(=O)O)Cc1ccccc1; NMeK = CN[C@@H](CCCCN)C(=O)O; Isovaleryl = CC(C)CC(=O)*; Ahx = NCCCCCC(=O)O
Kindly supply the reported FPN IC50 values for the records listed here.
Answers are plain numbers, in nM.

Example entries and their recorded answers appear below.
Isovaleryl-LTH[Dip]PAIK([Ahx-Palmitoyl])[β3hF]-NH2 (SMILES CCCCCCCCCCCCCCCC(=O)NCCCCCC(=O)NCCCC[C@H](NC(=O)[C@@H](NC(=O)[C@H](C)NC(=O)[C@@H]1CCCN1C(=O)[C@@H](NC(=O)[C@H](Cc1c[nH]cn1)NC(=O)[C@@H](NC(=O)[C@H](CC(C)C)NC(=O)CC(C)C)[C@@H](C)O)C(c1ccccc1)c1ccccc1)[C@@H](C)CC)C(=O)N[C@H](CC(N)=O)Cc1ccccc1) [Isovaleric Acid-L-T-H-[Dpa]-P-A-I-[Lys(Ahx_Palm)]-[bhPhe]-NH2] ... 1580
Isovaleryl-ETHFPAIK([γGlu-Myristoyl])FEPRSKGAK-NH2 [Isovaleric Acid-E-T-H-F-P-A-I-[Lys(IsoGlu_C14_acid)]-F-E-P-R-S-K-G-A-K-NH2] ... 822
Cyclohexanecarboxylic_Acid-LTH[Dip]PK([Ahx-Palmitoyl])[N_Butyl_Phe] [Cyclohexanecarboxylic_Acid-L-T-H-[Dpa]-P-[Lys(Ahx_Palm)]-N_Butyl_Phe] ... 3300

Next binder, FPN IC50 to be filled in.
Prompt: What does the record list as FPN IC50 for Isovaleryl-[meL]TH[Dip]P[NMeK]([Ahx-Palmitoyl])-N_Butyl_Phe [Isovaleric Acid-meL-T-H-[Dpa]-P-NMe[Lys(Ahx_Palm)]-N_Butyl_Phe] ?
Response: 71
